Measured log10(IC50), listed per entry for reference.
Target: Full length DGKζ (in-house protein M1-V929) (Homo sapiens, UniProt Q13574)
Construct: His (N); TEV site (N)
Sequence (Q13574 1-929 isoform Q13574-4): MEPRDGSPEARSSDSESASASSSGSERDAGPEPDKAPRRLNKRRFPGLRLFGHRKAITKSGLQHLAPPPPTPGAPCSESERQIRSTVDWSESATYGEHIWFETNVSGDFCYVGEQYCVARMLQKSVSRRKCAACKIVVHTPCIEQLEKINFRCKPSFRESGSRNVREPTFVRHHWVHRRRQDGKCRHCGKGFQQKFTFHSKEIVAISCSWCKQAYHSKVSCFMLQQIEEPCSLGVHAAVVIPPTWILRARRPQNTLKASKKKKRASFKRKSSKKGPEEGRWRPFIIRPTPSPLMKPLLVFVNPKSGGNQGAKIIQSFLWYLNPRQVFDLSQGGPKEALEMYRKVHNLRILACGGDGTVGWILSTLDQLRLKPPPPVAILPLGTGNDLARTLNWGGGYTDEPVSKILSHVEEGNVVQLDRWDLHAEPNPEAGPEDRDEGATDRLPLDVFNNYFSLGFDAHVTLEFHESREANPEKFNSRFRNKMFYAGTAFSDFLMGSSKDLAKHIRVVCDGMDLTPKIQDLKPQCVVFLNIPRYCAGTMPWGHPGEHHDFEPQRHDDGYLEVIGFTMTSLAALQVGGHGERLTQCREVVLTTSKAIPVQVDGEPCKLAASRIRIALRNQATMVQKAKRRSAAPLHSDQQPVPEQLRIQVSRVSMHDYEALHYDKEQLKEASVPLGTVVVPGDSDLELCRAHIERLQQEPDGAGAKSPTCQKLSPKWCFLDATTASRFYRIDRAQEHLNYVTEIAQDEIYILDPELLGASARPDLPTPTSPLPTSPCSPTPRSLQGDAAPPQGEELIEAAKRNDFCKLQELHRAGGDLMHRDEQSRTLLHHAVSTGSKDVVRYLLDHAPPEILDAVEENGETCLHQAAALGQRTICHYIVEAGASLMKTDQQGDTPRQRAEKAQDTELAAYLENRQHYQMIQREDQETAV
Assay: Biochemical DGK IC50 assay (ADP-Glo, lipid micelle substrate), DGKζ
Conditions: 1 hour preincubation, 1 hour reaction, room temperature
# log10 transformed; quantity=IC50; unit=nM

Examples from the recorded data:
>>> endpoint_value("COc1cc(F)ccc1C(C)N1C[C@H](C)N(c2cc(=O)n(C)c3c2nc(CC#N)n3C)C[C@H]1C (single isomer, unassigned) [Compound A4a]")
2.75
>>> endpoint_value("CCn1c(CC#N)nc2c(N3C[C@@H](C)N(C(C)c4ccc5c(c4)OC(F)(F)CO5)C[C@@H]3C)nc(=O)n(C)c21 (single isomer, unassigned) [Compound A80b]")
2.82
>>> endpoint_value("CCn1c(CC#N)nc2c(N3C[C@@H](C)N(C(C)c4ccnc5c4OCCC5(F)F)C[C@@H]3C)nc(=O)n(C)c21 (single isomer, unassigned) [Compound A103a]")
2.72
>>> endpoint_value("CC(c1ccc(F)cc1C(F)(F)F)N1C[C@H](C)N(c2nc(=O)n(C)c3c2nc(CC#N)n3C)C[C@H]1C (single isomer, unassigned) [Compound A33a]")
2.91
>>> endpoint_value("CC[C@@H]1CN(c2nc(=O)n(C)c3c2nc(CC#N)n3C)[C@@H](C)CN1C(C)c1ccc2c(n1)OC(C)(C)CO2 (single isomer, unassigned) [Compound A159a]")
1.40

[Q] Give Full length DGKζ (in-house protein M1-V929) (Homo sapiens, UniProt Q13574) log10(IC50) for CCn1c(CC#N)nc2c(N3C[C@@H](C)N(C(C)c4ccc5c(n4)OC(C)(C)CO5)C[C@@H]3C)nc(=O)n(C)c21 (single isomer, unassigned) [Compound A74a]
[A] 1.66

[Q] Quick one: CCn1c(CC#N)nc2c(N3C[C@@H](C)N(C(C)c4cc5c(cc4F)OC(C)(C)O5)C[C@@H]3C)nc(=O)n(C)c21 (single isomer, unassigned) [Compound A174a]
[A] 3.01

[Q] Same lookup for CCn1c(CC#N)nc2c(N3C[C@@H](C)N(C(C)c4cc(Cl)c5c(c4)OC(C)(C)CO5)C[C@@H]3C)nc(=O)n(C)c21 (some centres unmarked) , please.
[A] 1.81

[Q] Request: CC(c1ccc(F)cc1C(F)(F)F)N1C[C@H](C)N(c2cc(=O)n(C)c3[nH]c(CC#N)nc23)C[C@H]1C (single isomer, unassigned) [Compound A9b]
[A] 2.23

[Q] For CCn1c(CC#N)nc2c(N3C[C@@H](C)N(C(C)c4ccc5c(c4)CN(CC(F)(F)F)C5=O)C[C@@H]3C)nc(=O)n(C)c21 (some centres unmarked) then?
[A] 2.30

Numbers sourced from patent US20260125378A2.
